target: human TLR7 (Homo sapiens, UniProt Q9NYK1); experiment: TLR7 inhibition reporter assay (HEK-Blue SEAP); conditions: HEK-Blue cells overexpressing human TLR7, stimulated with gardiquimod 7.5 μM, 22 hour incubation
Sequence (Q9NYK1 27-1049): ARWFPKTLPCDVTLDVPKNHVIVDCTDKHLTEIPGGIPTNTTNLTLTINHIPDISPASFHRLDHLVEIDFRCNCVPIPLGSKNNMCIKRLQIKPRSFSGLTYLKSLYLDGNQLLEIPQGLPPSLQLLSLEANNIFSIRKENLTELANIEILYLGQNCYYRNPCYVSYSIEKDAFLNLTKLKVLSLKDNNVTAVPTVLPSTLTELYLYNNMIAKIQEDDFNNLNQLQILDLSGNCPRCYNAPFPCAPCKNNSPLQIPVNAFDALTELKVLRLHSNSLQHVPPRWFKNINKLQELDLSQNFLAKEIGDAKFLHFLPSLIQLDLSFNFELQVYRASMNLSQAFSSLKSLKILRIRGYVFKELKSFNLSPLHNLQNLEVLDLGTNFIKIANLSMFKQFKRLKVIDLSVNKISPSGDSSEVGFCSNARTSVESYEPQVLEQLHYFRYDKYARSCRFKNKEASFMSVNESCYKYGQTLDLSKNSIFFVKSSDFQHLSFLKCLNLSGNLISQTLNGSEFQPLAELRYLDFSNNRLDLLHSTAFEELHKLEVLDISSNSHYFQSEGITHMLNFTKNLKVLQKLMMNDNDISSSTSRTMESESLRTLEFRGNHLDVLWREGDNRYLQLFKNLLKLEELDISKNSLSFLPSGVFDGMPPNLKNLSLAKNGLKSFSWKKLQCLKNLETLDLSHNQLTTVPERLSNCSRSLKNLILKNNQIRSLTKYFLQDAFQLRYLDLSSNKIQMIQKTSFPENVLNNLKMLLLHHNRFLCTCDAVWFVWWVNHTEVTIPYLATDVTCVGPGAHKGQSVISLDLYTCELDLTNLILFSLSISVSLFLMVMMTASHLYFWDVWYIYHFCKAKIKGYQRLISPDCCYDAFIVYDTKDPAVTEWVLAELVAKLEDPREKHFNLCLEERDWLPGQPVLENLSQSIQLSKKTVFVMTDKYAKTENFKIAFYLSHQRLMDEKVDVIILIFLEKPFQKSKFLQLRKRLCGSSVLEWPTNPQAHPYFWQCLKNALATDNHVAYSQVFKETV
pIC50: −log10 of the molar value.
Binary call on pIC50: label 1 from 7 upward, label 0 beneath that.

Chemical smiles	Answer label
Cc1cc(-c2[nH]c3ccc(OCC4CCN(C(=O)CN(C)C)CC4)cc3c2C(C)C)cn2ncnc12	label 1
Cc1cc(-c2[nH]c3ccc(OC4CCN(C(C)C)CC4)cc3c2C(C)C)cn2ncnc12	label 1
Cc1c(-c2[nH]c3ccc(OCC4CCN(CC(=O)N(C)C)CC4)cc3c2C(C)C)cn(C)c(=O)c1C	label 1
Cc1cc(-c2[nH]c3ccc(OC4CCN(C5CCOCC5)CC4)cc3c2C(C)C)cn2ncnc12	label 1
CNC(=O)CN1CCC(Oc2ccc3[nH]c(-c4cc(C)c5ncnn5c4)c(C(C)C)c3c2)CC1	label 1
Cc1cc(-c2[nH]c3ccc(OCC4CCN(C(C)C)CC4)cc3c2C(C)C)cn2ncnc12	label 1
Cc1cc(-c2[nH]c3ccc(O[C@H]4CCCN(C(=O)CN(C)C)C4)cc3c2C(C)C)cn(C)c1=O	label 1
Cc1cc(-c2[nH]c3ccc(OCC4CCN(C)CC4)cc3c2C(C)C)cn(C)c1=O	label 1
COc1ccc(-c2[nH]c3ccc(OCC4CCNCC4)cc3c2C(C)C)cc1OC	label 1
Cc1c(-c2[nH]c3ccc(OCC4CN(C(=O)CN(C)C)C4)cc3c2C(C)C)cn2cnnc2c1C	label 1

stdin: Please indicate if the recorded pIC50 for COc1ccc(-c2[nH]c3ccc(OCC(=O)NC[C@@H](F)C(C)(C)O)cc3c2C(C)C)cc1OC meets or exceeds 7.
stdout: label 0

stdin: Please indicate if the recorded pIC50 for Cc1cc(-c2[nH]c3ccc(OC4CCN(CCC(F)(F)F)CC4)cc3c2C(C)C)ccn1 meets or exceeds 7.
stdout: label 0

stdin: Please indicate if the recorded pIC50 for Cc1c(-c2[nH]c3ccc(OC4CCN(CC(=O)N(C)C)CC4)cc3c2C(C)C)cn(C)c(=O)c1C meets or exceeds 7.
stdout: label 1

Hey, just so you know, these numbers are from patent US12030878B2.
